- target-under-test: KLK13 (Homo sapiens, UniProt Q9UKR3)
- Sequence (Q9UKR3 26-277 limits assumed): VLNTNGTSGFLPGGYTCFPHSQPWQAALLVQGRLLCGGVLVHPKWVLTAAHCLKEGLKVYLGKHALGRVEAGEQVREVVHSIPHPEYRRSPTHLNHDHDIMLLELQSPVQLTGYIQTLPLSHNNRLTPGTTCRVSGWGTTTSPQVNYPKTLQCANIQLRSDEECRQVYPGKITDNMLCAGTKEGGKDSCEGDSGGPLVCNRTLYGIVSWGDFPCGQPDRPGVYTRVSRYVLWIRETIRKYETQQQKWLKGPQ
- procedure-summary: Kinetic parameters of substrate hydrolysis by KLK13
- Assay type: biochemical
- Design: His6 (the forward primers encode HHHHHH followed by DDDDK; the protein was purified on nickel) (N); made in house; host or cells: Leishmania tarentolae strain T7-TR (LEXSY), secreted to the medium
- experimental-context: KLK13 1.25 × 10^−9 M; measured in triplicate, ± SD
- Experimental: The specificity constant (kcat/KM) was calculated from kcat and KM. The details of kinetic studies and the method of calculating kinetic parameters have been described previously.
Values of Km greater than or equal to 20 µM map to Met; values below map to Not met.

Examples with answers:
- substance: "ABZ-VRFRSTS-Tyr(3-NO2)-NH2 [optimized substrate differing only at the P3′ position (Ser)]"
  assigned-class: "Not met"
- substance: "ABZ-Val-Arg-Phe-Arg-ANB-NH2 [Substrate 1, kinetically preferred non-primed fluorogenic/chromogenic KLK13 substrate]"
  assigned-class: "Not met"
- substance: "ABZ-VRFRSTE-Tyr(3-NO2)-NH2 [optimized substrate differing only at the P3′ position (Glu)]"
  assigned-class: "Met"

Qu. Dear colleague, could you confirm whether ABZ-Val-Arg-Phe-Arg-Ser-Thr-Gln-Tyr(3-NO2)-NH2 [Substrate 2, internally quenched fluorogenic KLK13 substrate spanning P4-P3′] has Km at or above 20 µM?
Ans. Not met

* * *

- target-under-test: KLK13 (Homo sapiens)
- procedure-summary: Kinetic parameters of substrate hydrolysis by KLK13
- Assay type: biochemical
- Parameters: His6 (the forward primers encode HHHHHH followed by DDDDK; the protein was purified on nickel) (N); made in house; host or cells: Leishmania tarentolae strain T7-TR (LEXSY), secreted to the medium
- experimental-context: KLK13 1.25 × 10^−9 M; measured in triplicate, ± SD
Listing of entries alongside the reported kcat.
Write the number in s⁻¹ without appending the unit.

- substance: "ABZ-Val-Arg-Phe-Arg-ANB-NH2 [Substrate 1, kinetically preferred non-primed fluorogenic/chromogenic KLK13 substrate]"
  value-reported: 94.36
- substance: "ABZ-Val-Arg-Phe-Arg-Ser-Thr-Gln-Tyr(3-NO2)-NH2 [Substrate 2, internally quenched fluorogenic KLK13 substrate spanning P4-P3′]"
  value-reported: 96.43
- substance: "ABZ-VRFRSTG-Tyr(3-NO2)-NH2 [optimized substrate differing only at the P3′ position (Gly)]"
  value-reported: 169.40
- substance: "ABZ-VRFRSTS-Tyr(3-NO2)-NH2 [optimized substrate differing only at the P3′ position (Ser)]"
  value-reported: 113.12

Kindly review the next substance as well.
Qu. Fill in: kcat of ABZ-VRFRSTE-Tyr(3-NO2)-NH2 [optimized substrate differing only at the P3′ position (Glu)] is ___
Ans. 91.11

These data points were gathered from paper PMC6479877.
